targetUnderTest: UGT2B7 (Homo sapiens, UniProt P16662)
Sequence (P16662 24-529): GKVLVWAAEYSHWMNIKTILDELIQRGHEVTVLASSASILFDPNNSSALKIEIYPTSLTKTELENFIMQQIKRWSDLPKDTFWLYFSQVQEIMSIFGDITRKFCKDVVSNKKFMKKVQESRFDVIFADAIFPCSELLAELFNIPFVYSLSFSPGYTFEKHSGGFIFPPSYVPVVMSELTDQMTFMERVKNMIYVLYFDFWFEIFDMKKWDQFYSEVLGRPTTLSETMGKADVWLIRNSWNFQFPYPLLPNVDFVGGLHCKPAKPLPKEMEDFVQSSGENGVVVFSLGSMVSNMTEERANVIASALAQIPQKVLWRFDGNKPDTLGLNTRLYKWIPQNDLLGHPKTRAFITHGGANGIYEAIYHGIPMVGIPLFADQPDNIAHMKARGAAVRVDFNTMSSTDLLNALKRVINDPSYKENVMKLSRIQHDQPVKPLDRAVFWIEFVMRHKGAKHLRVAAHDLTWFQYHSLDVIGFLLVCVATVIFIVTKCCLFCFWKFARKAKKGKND
assayName: IC50 determination and calculated Ki, morphine glucuronidation in HLM
runParameters: read-out: IC50,u, Morphine-6-Glucuronide formation, corrected for non-specific binding with fu,inc (11-OH-THC fu,inc as surrogate for 11-COOH-THC and 7-OH-CBD)
Give measured IC50 for each item. Keep answers brief.
Answers are plain numbers, in nM.

Here is how some compounds turned out for IC50.
CCCCCc1cc(O)c2c(c1)OC(C)(C)[C@@H]1CCC(C)=C[C@@H]21 [THC, Δ^9-tetrahydrocannabinol, reference compound]    740
CCCCCc1cc(O)c2c(c1)OC(C)(C)[C@@H]1CCC(C(=O)O)=C[C@@H]21    9800

Let's switch to this compound now.
For the compound C=C(C)[C@@H]1CCC(CO)=C[C@H]1c1c(O)cc(CCCCC)cc1O [7-OH-CBD, 7-hydroxy-cannabidiol] , the measured IC50 on UGT2B7 (Homo sapiens, UniProt P16662) was 750
